experiment: gst-4 reporter inhibition in live C. elegans – whole organism, uHTS, GFP/RFP fluorescence ratio, strain VP596, SKN-1 inhibitor project, primary screen (AID 624304); details: C. elegans VP596 Pgst-4::GFP/RFP ratio, acrylamide-induced, 24 h; at 21.8 µM
About 1,800 (0.5%) of roughly 360,000 compounds were called active.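 The calls were made as follows: active = interference check ratio from 0.5 to 1.5 plus GFP to RFP signal ratio inhibition reaching or exceeding a fixed threshold (cut at about 30% in these data, passing the limit was not always enough); inactive = the rest.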 Only a selection was taken, and actives are over-represented in it overall.
Pick from T for active, F for inactive when you respond.

Below are worked cases with known answers.
>>> label("CC(=O)N1CCN(c2ccc(NCc3ccc(C(C)C)cc3)cc2)CC1")
"T"
>>> label("CC(=O)c1cccc(NC(=O)N2CCCC2C(=O)NCCc2ccccc2)c1 (stereo unspecified)")
"F"

-- ask Dear colleague, could you share the recorded outcome for O=C(NCCCn1ccnc1)c1cc(-c2ccccc2)on1 when you have a moment?
-- reply F
